meta.source: ChEMBL document CHEMBL1201862

Quick reference: GI50 of the listed items.
# Tested on: SR
# METHOD: NCI tumour cell line growth inhibition, 48 h
Calls of active or inactive are those of the source. No stated cut-off is given here; in the data, active = GI50 up to about 1.1 µM and inactive = higher.
QUANTITY: GI50

>>> value_measured("C1C2CC3CC1CC(c1nn4c(C56CC7CC(CC(C7)C5)C6)nnc4s1)(C2)C3")
"> 100 µM (inactive)"
>>> value_measured("COc1nc2cccc(C(O)c3ccccc3)c2nc1-c1ccccc1 (centres undefined)")
"1.75 µM (inactive)"
>>> value_measured("NC1=C(C(=O)O)C(=O)C(Nc2c(O)cccc2C(=O)O)=CC1=O")
"> 100 µM (inactive)"
>>> value_measured("Nc1ncnc2oc(C3OC(COC(=O)c4ccccc4)C(OC(=O)c4ccccc4)C3OC(=O)c3ccccc3)nc12 (centres undefined)")
"> 100 µM (inactive)"
